- testTarget: thromboxane A2 receptor (Cavia porcellus)
- Construct: platelet-rich plasma; endogenous in cells
- Sequence (A0A286Y4I8 1-347): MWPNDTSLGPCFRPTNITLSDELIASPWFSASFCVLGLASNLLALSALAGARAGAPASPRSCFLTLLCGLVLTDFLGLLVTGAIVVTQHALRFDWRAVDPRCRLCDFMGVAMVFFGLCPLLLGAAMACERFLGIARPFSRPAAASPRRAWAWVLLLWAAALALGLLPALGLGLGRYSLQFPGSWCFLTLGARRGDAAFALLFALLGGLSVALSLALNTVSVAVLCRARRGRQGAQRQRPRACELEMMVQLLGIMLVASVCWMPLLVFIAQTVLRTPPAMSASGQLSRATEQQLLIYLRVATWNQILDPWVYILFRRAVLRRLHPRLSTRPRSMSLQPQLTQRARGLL
- testName: Thromboxane A2 antagonistic effect: inhibition of U-46619-induced platelet aggregation in guinea-pig platelet-rich plasma
- particulars: guinea-pig PRP, U-46619 2 μg/ml, 2 min at 37° C.; read-out: IC50 (50% inhibition against platelet aggregation)
outcomeMeasure: IC50

{"compound": "CC(C)CCCCC(NS(=O)(=O)c1ccc(Cl)cc1)c1ccc(CCCC(=O)O)cc1 (centres unmarked) [Example 108]", "IC50": "0.5 µM"}
{"compound": "O=C(O)CCCCc1ccc(C(Cc2ccccc2)NS(=O)(=O)c2ccc(Cl)cc2)cc1 (centres unmarked) [Example 92]", "IC50": "0.32 µM"}
{"compound": "O=C(O)CCCc1ccc(C(Cc2ccccc2F)NS(=O)(=O)c2ccc(Cl)cc2)cc1 (centres unmarked) [Example 93]", "IC50": "0.32 µM"}
{"compound": "O=C(O)CCCc1ccc(C(CCCc2ccccc2)NS(=O)(=O)c2ccc(Cl)cc2)cc1 (centres unmarked) [Example 114]", "IC50": "0.32 µM"}
{"compound": "O=C(O)CCCc1ccc(C(NS(=O)(=O)c2ccc(Cl)cc2)C2CCCCC2)cc1 (centres unmarked) [Example 74]", "IC50": "0.32 µM"}

Measured IC50 of CC(C)CCC(NS(=O)(=O)c1ccc(Cl)cc1)c1ccc(CCCC(=O)O)cc1 (centres unmarked) [Example 71] : 0.4 µM

Measured IC50 of Cc1ccc(S(=O)(=O)NC(Cc2ccccc2)c2ccc(CCCC(=O)O)cc2)cc1 (centres unmarked) [Example 90] : 0.32 µM

Measured IC50 of O=C(O)CCCc1ccc(C(CCCCC2CCCCC2)NS(=O)(=O)c2ccc(Cl)cc2)cc1 (centres unmarked) [Example 82] : 0.4 µM
